Attribution: patent US20230331803A1

# key: entry, value: AUC/D
- protocol_description: Pharmacokinetic studies in Beagle dogs after oral administration of SNAC-based tablets
- Assay type: in vivo
- protocol_conditions: dogs, oral administration (tablet)
Starred links: 1 amine or outer side, 2 acyl side, 3 side chain; linkers in the order of their positions; H or OH if unused. Non-standard residues stand in square brackets, D forms with d. Groups on a side chain read outwards from the residue. *: point of attachment. C20 diacid = O=C(O)CCCCCCCCCCCCCCCCCCC(=O)*; γGlu = O=C(O)[C@H](CCC(=O)[*:2])N[*:1]; εLys = N[C@@H](CCCCN[*:1])C(=O)[*:2]; AEEA = NCCOCCOCC(=O)O; Aib = CC(C)(N)C(=O)O
Reply with just the number (in kg·h/L).

# molecule, property_name, experimental_value
measured = [
    ("H-Aib-EGTFTSDVSSYLEEQAAREFIAWLVRGRP-K([2-[2-[2-[[2-[2-[2-[[(4S)-4-Carboxy-4-[[4-[(19-Carboxynonadecanoylamino)Methyl]Cyclohexanecarbonyl]Amino]Butanoyl]Amino]Ethoxy]Ethoxy]Acetyl]Amino]Ethoxy]Ethoxy]A … (peptide) peptide: H[Aib]EGTFTSDVSSYLEEQAAREFIAWLVRGRPK([AEEA-AEEA-γGlu-4‑(aminomethyl)cyclohexanecarbonyl-C20 diacid])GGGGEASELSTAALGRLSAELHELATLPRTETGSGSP-NH2", "AUC/D", 3.25),
    ("H-Aib-EGTFTSDVSSYLEEQAAREFIAWLVRGR-K([(2S)-2-Amino-6-[[2-[2-[2-[[2-[2-[2-[[(4S)-4-Carboxy-4-[[4-[(19-Carboxynonadecanoylamino)Methyl]Cyclohexanecarbonyl]Amino]Butanoyl]Amino]Ethoxy]Ethoxy]Acetyl]Amino … (peptide) peptide: H[Aib]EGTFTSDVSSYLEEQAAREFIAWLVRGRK([εLys-AEEA-AEEA-γGlu-4‑(aminomethyl)cyclohexanecarbonyl-C20 diacid])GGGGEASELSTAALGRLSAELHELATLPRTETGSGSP-NH2", "AUC/D", 6.53),
    ("HWEGTFTSDVSSYLEEQAAR-K([2-[2-[2-[[2-[2-[2-[[(4S)-4-Carboxy-4-[[4-[(19-Carboxynonadecanoylamino)Methyl]Cyclohexanecarbonyl]Amino]Butanoyl]Amino]Ethoxy]Ethoxy]Acetyl]Amino]Ethoxy]Ethoxy]Acetyl])-FIEWLVR … (peptide) peptide: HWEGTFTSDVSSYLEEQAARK([AEEA-AEEA-γGlu-4‑(aminomethyl)cyclohexanecarbonyl-C20 diacid])FIEWLVRGRGEGGGGGASELSTAALGRLSAELHELATLPRTETGSGSP-NH2", "AUC/D", 19.54),
]

// lookup AUC/D for H-Aib-EGTFTSDVS-K([2-[2-[2-[[2-[2-[2-[[(4S)-4-Carboxy-4-[[4-[(19-Carboxynonadecanoylamino)Methyl]Cyclohexanecarbonyl]Amino]Butanoyl]Amino]Ethoxy]Ethoxy]Acetyl]Amino]Ethoxy]Ethoxy]Acetyl])-YLEEQAAREFIA … (peptide) peptide: H-H[Aib]EGTFTSDVSK([AEEA-AEEA-γGlu-4‑(aminomethyl)cyclohexanecarbonyl-C20 diacid])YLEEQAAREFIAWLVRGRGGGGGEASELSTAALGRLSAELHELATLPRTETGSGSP-NH2
11.10
